Ref: patent US8143255B2

Measured pIC50, listed per entry for reference.
target: CDK2/CyclinA (Homo sapiens, UniProt P24941); experiment: In vitro kinase activity assay (PKLight), CDK2/Cyclin A; details: recombinant CDK2/Cyclin A, RbING substrate, 0.5 μM ATP, 2 hr
pIC50: −log10 of the molar value.
measurement.kind: pIC50

{"columns": ["molecule", "measured.result"],
 "data": [
  ["C1=C\\CNCc2cccc(c2)Nc2nccc(n2)-c2cccc(c2)OCC/1 [Compound 29]", "≥ 6.00"],
  ["CN1C/C=C/CCOc2cccc(c2)-c2ccnc(n2)Nc2cc(ccn2)C1 [Compound 44]", "5.30 to 6.00"],
  ["C1=C/CNCc2cccc(c2)Nc2nccc(n2)-c2cccc(c2)OCC/1 [Compound 22]", "≥ 6.00"],
  ["CN1C/C=C/CCOc2cccc(c2)-c2ccnc(n2)Nc2ccc(OCCN3CCOCC3)c(c2)C1 [Compound 13]", "≥ 6.00"],
  ["O=C1NC/C=C/COCc2cccc(c2)Nc2nccc(n2)-c2cccc1c2 [Compound 17]", "< 5.30"],
  ["CN1Cc2cccc(c2)Nc2nccc(n2)-c2cccc(c2)OCCC2CC2C1 (centres unmarked) [Compound 20]", "≥ 6.00"],
  ["CN1C/C=C/COCC2=CC=C(S2)c2ccnc(n2)Nc2ccc(OCCN3CCCC3)c(c2)C1 [Compound 74]", "≥ 6.00"],
  ["CN1C/C=C/CCOc2cccc(c2)-c2ccnc(n2)Nc2ccc(OCCN3CCCC3)c(c2)C1 [Compound 40]", "≥ 6.00"],
  ["CCS(=O)(=O)CCOc1ccc2cc1CN(C)C/C=C/CCOc1cccc(c1)-c1ccnc(n1)N2 [Compound 70]", "≥ 6.00"],
  ["CCN(CC)CCOc1ccc2cc1CN(C)C/C=C/CCOc1cccc(c1)-c1ccnc(n1)N2 [Compound 32]", "≥ 6.00"],
  ["CN1C/C=C/CCOc2cccc(c2)-c2ccnc(n2)Nc2ccc(OCCn3cncn3)c(c2)C1 [Compound 61]", "≥ 6.00"],
  ["CN1C/C=C/COCC2=CC=C(O2)c2ccnc(n2)Nc2cccc(c2)C1 [Compound 62]", "≥ 6.00"],
  ["CN1C/C=C/CCOc2cc(F)cc(c2)-c2ccnc(n2)Nc2cccc(c2)C1 [Compound 35]", "≥ 6.00"],
  ["O=C1CC/C=C/COCc2cccc(c2)Nc2nccc(n2)-c2cccc(c2)N1 [Compound 4]", "5.30 to 6.00"],
  ["C1=C/CN(C2CC2)Cc2cc(ccc2OCCN2CCOCC2)Nc2nccc(n2)-c2cccc(c2)OCC/1 [Compound 36]", "≥ 6.00"],
  ["CN1C/C=C/CCOc2cc(F)cc(c2)-c2ccnc(n2)Nc2ccc(OCCN3CCCC3)c(c2)C1 [Compound 52]", "≥ 6.00"],
  ["CN1C/C=C/CCOc2cccc(c2)-c2ccnc(n2)Nc2ccc(N3CCOCC3)c(c2)C1 [Compound 39]", "≥ 6.00"]
]}
